assay: Equilibrium solubility; format: physicochemical; settings: purified water, H2O (purified water), 37°C
measure-name: solubility thermodynamic at 24 h (µg/mL)
Value expressed in µg/mL; do not type the unit.

Notebook: O=C(O)c1ccc2nc(CN3CCC(c4cccc(OCc5ccc(C6COC6)cc5F)n4)CC3)n(C[C@@H]3CCO3)c2c1 [Amorphous form of Compound I] , solubility thermodynamic at 24 h read as 430

====

assay: Equilibrium solubility; type: physicochemical; details: fessif, FeSSIF (fed-state simulated intestinal fluid), 37°C
measure-name: solubility thermodynamic at 24 h (µg/mL)
Expressed in µg/mL, but write only the number.

Quick note, solubility thermodynamic at 24 h for O=C(O)c1ccc2nc(CN3CCC(c4cccc(OCc5ccc(C6COC6)cc5F)n4)CC3)n(C[C@@H]3CCO3)c2c1 [Amorphous form of Compound I] landed at 800

====

assay: physchem; conditions: fassif, 37 °C, thermodynamic from solid
measure-name: solubility at 4 h (µg/mL)
Give the value, in units of µg/mL, as a plain number.

- compound: "O=C(O)c1ccc2nc(CN3CCC(c4cccc(OCc5ccc(C6COC6)cc5F)n4)CC3)n(C[C@@H]3CCO3)c2c1 [Crystal Form A of Compound Z]"
  solubility at 4 h / µg/mL: 110

According to the records, this compound O=C(O)c1ccc2nc(CN3CCC(c4cccc(OCc5ccc(C6COC6)cc5F)n4)CC3)n(C[C@@H]3CCO3)c2c1 [Compound I] displays solubility at 4 h of 120

====

assay: physchem; conditions: water
measure-name: solubility at 2 h (µg/mL)
Report the value in µg/mL with no unit label.

O=C(O)c1ccc2nc(CN3CCC(c4cccc(OCc5ccc(C6COC6)cc5F)n4)CC3)n(C[C@@H]3CCO3)c2c1 [Crystal Form A of Compound Z] yielded solubility at 2 h of 1380

====

experiment: physchem; details: water
measure-name: solubility at 1 h (µg/mL)
# unit: µg/mL | format: bare number

# compound O=C(O)c1ccc2nc(CN3CCC(c4cccc(OCc5ccc(C6COC6)cc5F)n4)CC3)n(C[C@@H]3CCO3)c2c1 [Crystal Form A of Compound Z] ; its solubility at 1 h = 5500

====

assay: Equilibrium solubility; assay type: physicochemical; conditions: SGF (simulated gastric fluid), 37°C
measure-name: solubility thermodynamic at 24 h (µg/mL)
Entry rule: numbers only, all in µg/mL.

Value of measured solubility thermodynamic at 24 h for the entry O=C(O)c1ccc2nc(CN3CCC(c4cccc(OCc5ccc(C6COC6)cc5F)n4)CC3)n(C[C@@H]3CCO3)c2c1 [Crystal Form A of Compound Z] : 1000

====

assay: Equilibrium solubility; format: physicochemical; details: FaSSIF (fasted-state simulated intestinal fluid), 37°C
measure-name: solubility thermodynamic at 24 h (µg/mL)
// return numeric value only (unit: µg/mL, not printed)

Lab note: measured solubility thermodynamic at 24 h of O=C(O)c1ccc2nc(CN3CCC(c4cccc(OCc5ccc(C6COC6)cc5F)n4)CC3)n(C[C@@H]3CCO3)c2c1 [Crystal Form A of Compound Z] was 1190

====

Listed below: solubility at 2 h values for each entry.
assay: physchem; conditions: FaSSGF, 37 °C, fassgf or other biorelevant, thermodynamic from solid
The response must be a number in µg/mL with no trailing unit.

- compound: "O=C(O)c1ccc2nc(CN3CCC(c4cccc(OCc5ccc(C6COC6)cc5F)n4)CC3)n(C[C@@H]3CCO3)c2c1 [Compound I]"
  solubility at 2 h [µg/mL]: 90

Measured solubility at 2 h of O=C(O)c1ccc2nc(CN3CCC(c4cccc(OCc5ccc(C6COC6)cc5F)n4)CC3)n(C[C@@H]3CCO3)c2c1 [Crystal Form A of Compound Z] : 140

====

test: physchem; settings: FaSSGF, 37 °C, fassgf or other biorelevant, thermodynamic from solid
measure-name: solubility at 24 h (µg/mL)
The reply should contain only the number, in µg/mL.

Recorded solubility at 24 h (compound O=C(O)c1ccc2nc(CN3CCC(c4cccc(OCc5ccc(C6COC6)cc5F)n4)CC3)n(C[C@@H]3CCO3)c2c1 ): 100

====

experiment: physchem; conditions: fassif, 37 °C, thermodynamic from solid
measure-name: solubility at 24 h (µg/mL)
The reply should be a number in µg/mL, with the unit left off.

- compound: "O=C(O)c1ccc2nc(CN3CCC(c4cccc(OCc5ccc(C6COC6)cc5F)n4)CC3)n(C[C@@H]3CCO3)c2c1 [Compound I]"
  measure-name: "solubility at 24 h"
  unit-annotation: "µg/mL"
  recorded-number: 210

# ---- query compound ----
// O=C(O)c1ccc2nc(CN3CCC(c4cccc(OCc5ccc(C6COC6)cc5F)n4)CC3)n(C[C@@H]3CCO3)c2c1 [Crystal Form A of Compound Z] : solubility at 24 h value = 280

====

assay: Equilibrium solubility; assay type: physicochemical; details: H2O (purified water), 37°C
measure-name: solubility thermodynamic at 24 h (µg/mL)
Expressed in µg/mL, but write only the number.

Form: molecule = O=C(O)c1ccc2nc(CN3CCC(c4cccc(OCc5ccc(C6COC6)cc5F)n4)CC3)n(C[C@@H]3CCO3)c2c1 [Crystal Form A of Compound Z] ; solubility thermodynamic at 24 h = 1940

====

Test: Equilibrium solubility
Type: physicochemical
Conditions: fassif, FaSSIF (fasted-state simulated intestinal fluid), 37°C
Procedure: After 24 hours, samples were taken. The samples were centrifuged for separation, and the supernatant after filtration was used for solubility determination.
measure-name: solubility thermodynamic at 24 h (µg/mL)
Give the number; µg/mL is assumed, so skip it.

Documented solubility thermodynamic at 24 h of O=C(O)c1ccc2nc(CN3CCC(c4cccc(OCc5ccc(C6COC6)cc5F)n4)CC3)n(C[C@@H]3CCO3)c2c1 [Amorphous form of Compound I] : 150

====

experiment: physchem; details: FaSSGF, 37 °C, fassgf or other biorelevant, thermodynamic from solid
measure-name: solubility at 4 h
Kindly report the value followed by its unit.

- compound: "O=C(O)c1ccc2nc(CN3CCC(c4cccc(OCc5ccc(C6COC6)cc5F)n4)CC3)n(C[C@@H]3CCO3)c2c1 [Crystal Form A of Compound Z]"
  measure-name: "solubility at 4 h"
  result: "120 µg/mL"

compound O=C(O)c1ccc2nc(CN3CCC(c4cccc(OCc5ccc(C6COC6)cc5F)n4)CC3)n(C[C@@H]3CCO3)c2c1 [Compound I] , solubility at 4 h observed: 110 µg/mL

====

assay: Equilibrium solubility; format: physicochemical; conditions: sgf (simulated gastric fluid), 37°C
measure-name: solubility thermodynamic at 24 h (µg/mL)
// return numeric value only (unit: µg/mL, not printed)

Record O=C(O)c1ccc2nc(CN3CCC(c4cccc(OCc5ccc(C6COC6)cc5F)n4)CC3)n(C[C@@H]3CCO3)c2c1 [Amorphous form of Compound I] , field solubility thermodynamic at 24 h: 410

meta.source: patent EP4635951A1
